Tested on: HCT-116
Test: Antitumor activity against human HCT116 cells xenografted in athymic nude BALB/cAJcL mouse assessed as inhibition of tumor growth at 25 mg/kg, iv administered on days 1,3,5,8,10 and 12 measured on day 15
Type: functional
Cut-off 20% on T/C: below means Y, at or above means N.

Ask | Dear colleague, could you confirm whether T/C of N[C@@H](CSC1(c2ccc(Cl)cc2)c2ccccc2CCc2ccccc21)C(=O)O falls below 20%? Thanks.
Reply | Y

Ask | Now consider COc1ccc(C2(SC[C@H](N)C(=O)O)c3ccccc3CCc3ccccc32)cc1 and answer again.
Reply | N

Ask | Now consider N[C@@H](CSC1(c2ccc(C(F)(F)F)cc2)c2ccccc2C=Cc2ccccc21)C(=O)O and answer again.
Reply | Y

Ask | Now consider N[C@@H](CSC1(c2ccc(C(F)(F)F)cc2)c2ccccc2CCc2ccccc21)C(=O)O and answer again.
Reply | N

Ask | Now consider Cc1ccc(C2(SC[C@H](N)C(=O)O)c3ccccc3CCc3ccccc32)cc1 and answer again.
Reply | Y

Ask | Now consider N[C@@H](CSC1(c2ccccc2)c2ccccc2CCc2ccccc21)C(=O)O and answer again.
Reply | N

====

Provide the reported ΔTm of each item.
Target: Kinesin-like protein KIF11 (Homo sapiens)
Sequence (P52732 whole entry): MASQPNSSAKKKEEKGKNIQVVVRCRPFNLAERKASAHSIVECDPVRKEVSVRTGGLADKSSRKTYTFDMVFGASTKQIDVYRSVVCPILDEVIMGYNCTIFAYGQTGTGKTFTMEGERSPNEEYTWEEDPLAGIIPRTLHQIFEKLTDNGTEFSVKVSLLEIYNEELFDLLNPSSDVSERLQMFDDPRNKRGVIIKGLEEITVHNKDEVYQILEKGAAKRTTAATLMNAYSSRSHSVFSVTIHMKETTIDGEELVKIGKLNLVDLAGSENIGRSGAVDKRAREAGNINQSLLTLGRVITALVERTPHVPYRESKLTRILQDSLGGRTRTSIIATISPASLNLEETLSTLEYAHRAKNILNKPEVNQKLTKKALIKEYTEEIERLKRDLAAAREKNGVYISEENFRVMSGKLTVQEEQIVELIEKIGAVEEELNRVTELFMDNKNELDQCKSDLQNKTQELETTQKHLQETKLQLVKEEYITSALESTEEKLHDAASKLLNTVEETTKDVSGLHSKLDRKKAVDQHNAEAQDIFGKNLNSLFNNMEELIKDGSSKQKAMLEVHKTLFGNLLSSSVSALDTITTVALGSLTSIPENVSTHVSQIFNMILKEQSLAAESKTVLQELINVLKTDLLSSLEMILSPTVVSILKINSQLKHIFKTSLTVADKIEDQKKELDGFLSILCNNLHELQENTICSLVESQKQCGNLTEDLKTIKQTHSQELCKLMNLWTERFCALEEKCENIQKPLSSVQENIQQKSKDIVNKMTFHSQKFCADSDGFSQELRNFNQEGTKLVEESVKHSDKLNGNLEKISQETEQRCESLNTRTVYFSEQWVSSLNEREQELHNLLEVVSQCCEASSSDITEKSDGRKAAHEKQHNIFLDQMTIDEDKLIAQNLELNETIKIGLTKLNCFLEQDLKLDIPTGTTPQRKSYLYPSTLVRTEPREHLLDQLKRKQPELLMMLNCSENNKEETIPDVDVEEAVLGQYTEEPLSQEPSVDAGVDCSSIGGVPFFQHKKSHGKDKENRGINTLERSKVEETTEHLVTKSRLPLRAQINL
Could you give me the number in °C? Just the number is fine.

Ask | Given the compound COc1ccc(C2(SC[C@H](N)C(=O)O)c3ccccc3C=Cc3ccccc32)cc1 , what is its reported ΔTm?
Reply | 12.5

Ask | Now consider COc1ccc(C(SC[C@H](N)C(=O)O)(c2ccccc2)c2ccccc2)cc1 and answer again.
Reply | 9

Ask | Now consider N[C@@H](CSC1(c2ccccc2)c2ccccc2CCc2ccccc21)C(=O)O and answer again.
Reply | 8

Ask | Now consider COc1ccc(C2(SC[C@H](N)C(=O)O)c3ccccc3CCc3ccccc32)cc1 and answer again.
Reply | 12

====

Molecular target: UniProtKB P52732
Experiment: Inhibition of His-tagged KSP motor domain (1 to 369) (unknown origin) assessed as inhibition of microtubule-stimulated KSP ATPase activity preincuabted for 30 mins followed by ATP addition measured after 15 mins by Kinase-Glo assay
Provide the reported IC50 of each item.
Could you give me the number in nM? Just the number is fine.

Ask | Given the compound N[C@@H](CSC1(c2ccc(C(F)(F)F)cc2)c2ccccc2CSc2ccccc21)C(=O)O (mixture of isomers) , what is its reported IC50?
Reply | 61

Ask | Now consider N[C@@H](CSC1(c2ccc(C(F)(F)F)cc2)c2ccccc2COc2ccccc21)C(=O)O (mixture of isomers) and answer again.
Reply | 75

The reported numbers originate from ChEMBL document CHEMBL3632570.
